result.type: CC50 (µM)
Record the value in µM, omitting the unit from your answer.

// returns CC50 for C=C1C(=O)O[C@H]2[C@H]1CC/C(COC(=O)NC)=C\CC[C@@]1(C)O[C@@H]21 [JVM 2-57] with MCF7; value = 47.7

Measured CC50 (MCF7), entry C=C1C(=O)O[C@H]2[C@H]1CC/C(COC(=O)N1CCC(F)(F)CC1)=C\CC[C@@]1(C)O[C@@H]21 [JVM 2-66] : 26.4

Param item: C=C1C(=O)O[C@H]2[C@H]1CC/C(COC(=O)NCCO)=C\CC[C@@]1(C)O[C@@H]21 [JVM 2-50] ; param system: MCF7; output CC50: 75.5

The measured CC50 that C=C1C(=O)O[C@H]2[C@H]1CC/C(COC(=O)NCCN1CCCCC1)=C\CC[C@@]1(C)O[C@@H]21 [JVM 2-13] showed for MCF7 is 62.5

# C=C1C(=O)O[C@H]2[C@H]1CC/C(COC(=O)CCC(=O)N1CCC(C)CC1)=C\CC[C@@]1(C)O[C@@H]21 [JVM 2-70] with MCF7: CC50 is 64.1

The compound C=C1C(=O)O[C@H]2[C@H]1CC/C(COC(=O)N1CCN(C)CC1)=C\CC[C@@]1(C)O[C@@H]21 [JVM 2-44] , when measured on MCF7, yielded CC50 of 60.1

---

test system: HOP-92; test: panel of 60 human tumor cell lines, growth inhibition (Non-Small Cell Lung Cancer); settings: Homo sapiens, HOP-92, read-out: TGI
result.type: IC (TGI) (µM)
Report as a plain number; the unit µM is understood.

The molecule `C=C1C(=O)O[C@H]2[C@H]1CC/C(COC(=O)OC)=C\CC[C@@]1(C)O[C@@H]21` showed IC (TGI) equal to 7.99

Per the record, `C=C1C(=O)O[C@H]2[C@H]1CC/C(COC(=O)CCC(=O)NCc1ccc(Cl)nc1)=C\CC[C@@]1(C)O[C@@H]21` has IC (TGI) of 9.47

GET /value?item= `C=C1C(=O)O[C@H]2[C@H]1CC/C(COC(=O)NCCc1ccccn1)=C\CC[C@@]1(C)O[C@@H]21` &field=IC (TGI) returns 13.1

Noted for `C=C1C(=O)O[C@H]2[C@H]1CC/C(COC(=O)Nc1n[nH]c(SC)n1)=C\CC[C@@]1(C)O[C@@H]21` : its IC (TGI) reads 3.84

Sample `C=C1C(=O)O[C@H]2[C@H]1CC/C(COC(=O)OCCCN1CCCCC1)=C\CC[C@@]1(C)O[C@@H]21` ; IC (TGI) observed: 7.47

---

Task for the reader: assign each of the following compounds its reported CC50.

Recorded CC50 for `C=C1C(=O)O[C@H]2[C@H]1CC/C(COC(=O)NCCN1CCCCC1)=C\CC[C@@]1(C)O[C@@H]21` on NCI/ADR-RES was > 100 µM

Simply: `C=C1C(=O)O[C@H]2[C@H]1CC/C(COC(=O)N1CCC(F)(F)CC1)=C\CC[C@@]1(C)O[C@@H]21` , NCI/ADR-RES, CC50 = 69.5 µM

// returns CC50 for `C=C1C(=O)O[C@H]2[C@H]1CC/C(COC(=O)NCCO)=C\CC[C@@]1(C)O[C@@H]21` with NCI/ADR-RES; value = > 100 µM

Noted CC50 for `C=C1C(=O)O[C@H]2[C@H]1CC/C(COC(=O)NC)=C\CC[C@@]1(C)O[C@@H]21` , tested on NCI/ADR-RES: > 100 µM

CC50 for NCI/ADR-RES with input `C=C1C(=O)O[C@H]2[C@H]1CC/C(COC(=O)CCC(=O)N1CCC(C)CC1)=C\CC[C@@]1(C)O[C@@H]21` equals 96 µM

Considering `C=C1C(=O)O[C@H]2[C@H]1CC/C(COC(=O)N1CCN(C)CC1)=C\CC[C@@]1(C)O[C@@H]21` , its CC50 with NCI/ADR-RES was recorded as > 100 µM
